compounds and their reported chromatographic logP
experiment: log P by HPLC on reversed phase columns (Method L0; [a] acidic, [b] neutral range)

Examples with their reported chromatographic logP follow.
Cc1nn2c(C3CC3)c(C(=O)N[C@H]3CCOc4ccccc43)cnc2c1-c1cccc2c1CCN2C: 3.25
Cc1nn2c(C3CC3)c(C(=O)N[C@H]3CCc4ccccc43)cnc2c1-c1ccccc1Cl: 3.88
CC(C)c1c(C(=O)N[C@H]2CCc3ccccc32)cnc2c(-c3ccccc3F)c(C(F)(F)F)nn12: 4.76
Cc1nn2c(C(C)C)c(C(=O)N[C@H]3CCc4ccccc43)cnc2c1-c1cccc(C#N)c1: 4.31
CC(C)c1c(C(=O)N[C@H]2CCc3ccccc32)cnc2c(-c3cncc(F)c3)c(C(F)(F)F)nn12: 4.25

Quickly give me recorded chromatographic logP for `COc1cccc(-c2c(C)nn3c(C(C)C)c(C(=O)N[C@H]4CCCc5ccccc54)cnc23)c1`
4.82

Please report the measured chromatographic logP for `Cc1nn2c(C(C)C)c(C(=O)N[C@H]3CCc4ccccc43)cnc2c1-c1cc(Cl)c(Cl)c(Cl)c1`
6.58

---

assay: log P by HPLC on reversed phase columns (Method L0; [a] acidic, [b] neutral range)
READOUT_LABEL: chromatographic logP
Please give the numeric answer without any surrounding text.

Example entries begin here.
Cc1nn2c(C(C)C)c(C(=O)N[C@H]3CCOc4ccccc43)cnc2c1-c1c(F)ccc(F)c1F: 4.32
Cc1nn2c(C(C)C)c(C(=O)N[C@H]3CCc4ccccc43)cnc2c1-c1cnn(C(C)C)c1: 3.77
Cc1nn2c(C(C)C)c(C(=O)N[C@H]3CCc4ccccc43)cnc2c1-c1cccc2c1OC(F)(F)O2: 5.17
Cc1nn2c(C3CC3)c(C(=O)N[C@H]3CCc4ccccc43)cnc2c1-c1cccc(N(C)C)c1: 2.98

Return chromatographic logP for the following molecule: `COc1cccc(-c2c(C)nn3c(C4CC4)c(C(=O)N[C@H]4CCCc5ccccc54)cnc23)c1`
4.03

Give reported chromatographic logP value for `Cc1nn2c(C(C)C)c(C(=O)N[C@H]3CCOc4ccccc43)cnc2c1-c1ccc(F)c2c1OCO2`
4.13

Provide only the value of recorded chromatographic logP for `Cc1nn2c(C(C)C)c(C(=O)N[C@H]3CCc4ccccc43)cnc2c1-c1ccnc(Cl)c1`
4.23

---

Reported pEC50 is given for each of the following compounds.
target: C. elegans Slo-1a (Caenorhabditis elegans); experiment: In vitro assay 1: C. elegans Slo-1a, action at a recombinant C. elegans CHO cell line (membrane potential measurement)
Sequence (Q95V25 whole entry): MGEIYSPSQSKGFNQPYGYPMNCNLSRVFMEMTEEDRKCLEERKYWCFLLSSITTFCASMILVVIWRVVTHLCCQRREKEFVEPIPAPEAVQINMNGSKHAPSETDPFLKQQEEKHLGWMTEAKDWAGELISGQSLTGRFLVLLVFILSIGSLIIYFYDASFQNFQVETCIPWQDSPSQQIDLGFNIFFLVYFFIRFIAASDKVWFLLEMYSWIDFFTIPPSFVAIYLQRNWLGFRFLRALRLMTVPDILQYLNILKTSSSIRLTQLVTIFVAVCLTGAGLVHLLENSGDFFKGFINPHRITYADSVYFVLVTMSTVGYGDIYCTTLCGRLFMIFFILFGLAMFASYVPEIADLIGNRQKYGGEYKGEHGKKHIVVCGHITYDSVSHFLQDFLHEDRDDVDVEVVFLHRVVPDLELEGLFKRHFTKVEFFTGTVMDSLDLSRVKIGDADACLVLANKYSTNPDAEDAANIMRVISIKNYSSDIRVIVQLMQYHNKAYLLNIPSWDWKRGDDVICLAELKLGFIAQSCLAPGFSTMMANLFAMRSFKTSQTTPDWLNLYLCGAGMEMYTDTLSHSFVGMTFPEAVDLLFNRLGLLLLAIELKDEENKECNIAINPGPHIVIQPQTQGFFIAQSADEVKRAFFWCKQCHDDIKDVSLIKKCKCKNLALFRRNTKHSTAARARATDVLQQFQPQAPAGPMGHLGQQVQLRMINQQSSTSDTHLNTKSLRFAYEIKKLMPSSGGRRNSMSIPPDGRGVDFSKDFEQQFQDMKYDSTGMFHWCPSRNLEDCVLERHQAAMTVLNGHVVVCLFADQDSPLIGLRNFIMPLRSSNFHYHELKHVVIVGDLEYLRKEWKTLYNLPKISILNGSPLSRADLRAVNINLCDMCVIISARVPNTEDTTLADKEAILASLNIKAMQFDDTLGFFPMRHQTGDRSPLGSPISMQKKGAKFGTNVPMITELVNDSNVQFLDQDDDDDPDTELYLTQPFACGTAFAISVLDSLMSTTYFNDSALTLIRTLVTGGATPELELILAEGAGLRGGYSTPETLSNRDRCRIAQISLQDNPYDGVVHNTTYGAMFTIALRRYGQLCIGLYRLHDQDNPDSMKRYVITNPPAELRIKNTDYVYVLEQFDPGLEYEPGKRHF
Please express pEC50 as -log10 of the molar concentration.

Sample records with pEC50:
CC(C)c1c(C(=O)N[C@H]2CCc3ccccc32)cnc2c(-c3cccc(N(C)C)c3)c(C3CC3)nn12: 6.90
Cc1nn2c(C3CC3)c(C(=O)N[C@H]3CCOc4ccccc43)cnc2c1-c1cc(F)cc(F)c1F: 8.70
COCc1cccc(-c2c(C(F)(F)F)nn3c(C(C)C)c(C(=O)N[C@H]4CCc5ccccc54)cnc23)c1: 6.80

Let us examine a further case.
Entry `Cc1nn2c(C(C)C)c(C(=O)N[C@H]3CCc4ccccc43)cnc2c1-c1ccc(C(F)F)cc1` needs its pEC50 filled in; supply it.
7.60

---

Each item that follows carries a reported chromatographic logP.
assay: log P by HPLC on reversed phase columns (Method L0; [a] acidic, [b] neutral range)
# print the numeric value only

Cc1nn2c(C(C)C)c(C(=O)N[C@H]3CCc4ccccc43)cnc2c1-c1ccc2c(c1)OC(F)(F)O2 [Example 123]: 5.25
Cc1nn2c(C(C)C)c(C(=O)N[C@H]3CCOc4ccccc43)cnc2c1-c1c(F)cc(F)cc1F [Example 236]: 4.3
CC(C)c1c(C(=O)N[C@H]2CCOc3ccccc32)cnc2c(-c3cc(Cl)c(F)c(Cl)c3)c(C(F)(F)F)nn12 [Example 197]: 5.48

Retrieve chromatographic logP measured for Cc1nn2c(C(C)C)c(C(=O)N[C@H]3CCCc4ccccc43)cnc2c1-c1ccc(F)cc1 [Example 343] and print it.
4.95

For Cc1nn2c(C(C)C)c(C(=O)N[C@H]3CCOc4ccccc43)cnc2c1-c1ccccc1C#N [Example 264] , write its chromatographic logP.
3.68

Report chromatographic logP, nothing else, for this molecule: Cc1nn2c(C(C)C)c(C(=O)N[C@H]3CCOc4ccccc43)cnc2c1-c1cc(Cl)c(F)c(Cl)c1 [Example 194]
5.65

Report measured chromatographic logP; entry is CCC(C)c1c(C(=O)N[C@H]2CCOc3ccccc32)cnc2c(-c3c(F)cccc3Cl)c(C)nn12 (stereo partly drawn) [Example 226]
4.72

Assign chromatographic logP to the following record: Cc1nn2c(C(C)C)c(C(=O)N[C@H]3CCCc4ccccc43)cnc2c1-c1c(F)cccc1F [Example 98]
4.67

Note down chromatographic logP recorded for Cc1nn2c(C(C)C)c(C(=O)N[C@H]3CCOc4ccccc43)cnc2c1-c1cccc(OC(C)C)c1F [Example 188]
4.79
